Kindly state melting point for each of the entries shown.

// for each compound in input: emit melting point
1. O=C(Nc1nccs1)C12CC3CC(CC(C3)C1)C2
2. O=C(NCc1ccccc1)c1ccc(OCC(=O)C23CC4CC(CC(C4)C2)C3)cc1
3. CN(Cc1cccn1C)C(=O)CC12CC3CC(CC(C3)C1)C2
4. CN(Cc1ccco1)C(=O)C12CC3CC(CC(C3)C1)C2

// result
200 to 201 °C
145.6 °C
75 to 76.5 °C
53.5 to 54.5 °C

// for each compound in input: emit melting point
1. O=C(COCc1cccs1)C12CC3CC(CC(C3)C1)C2
2. O=C(NCc1cccs1)C12CC3CC(CC(C3)C1)C2
3. O=C(C[S+]([O-])c1cccs1)C12CC3CC(CC(C3)C1)C2 (stereo not shown)

// result
["57.2 to 58.3 °C", "155 to 155.5 °C", "114 to 115.5 °C"]

FYI, the data here is from patent US20100120789A1.
